Answer each item with its documented IC50.
# Target of assay: mouse melanocortin 1 receptor (mouse, UniProt Q01727 1-315)
# Sequence (Q01727 whole entry): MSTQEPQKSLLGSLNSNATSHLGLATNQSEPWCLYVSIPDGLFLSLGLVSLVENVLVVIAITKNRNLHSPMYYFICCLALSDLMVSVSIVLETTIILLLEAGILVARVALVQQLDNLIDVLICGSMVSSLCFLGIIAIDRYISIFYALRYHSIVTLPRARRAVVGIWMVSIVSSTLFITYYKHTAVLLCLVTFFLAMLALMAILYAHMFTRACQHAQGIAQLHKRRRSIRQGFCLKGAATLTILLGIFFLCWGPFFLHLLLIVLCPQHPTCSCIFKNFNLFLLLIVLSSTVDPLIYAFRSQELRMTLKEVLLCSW
# Experiment description: radioligand binding
Square brackets hold non-standard residues; d marks the D form. Dap = NC[C@H](N)C(=O)O
Give bare numbers, in µM.

cyclo(PRFFNVF[dP]) [c[Pro-Arg-Phe-Phe-Asn-Val-Phe-DPro]] : 15
cyclo(PRFF[Dap]VF[dP]) [c[Pro-Arg-Phe-Phe-Dap-Val-Phe-DPro]] : 8
cyclo(PCFFNAF[dP]) [c[Pro-Cys-Phe-Phe-Asn-Ala-Phe-DPro]] : 24.6
cyclo(PHFF[Dap]AF[dP]) [c[Pro-His-Phe-Phe-Dap-Ala-Phe-DPro]] : 25
cyclo(PCFF[Dap]AF[dP]) [c[Pro-Cys-Phe-Phe-Dap-Ala-Phe-DPro]] : 33

# per-item lookup of IC50; items listed below
1. PRFFXAFP (Dap (diaminopropionic acid) at position 5 (X in the letters); DPro at position 8; head-to-tail cyclised (macrocycle)) [c[Pro-Arg-Phe-Phe-Dap-Ala-Phe-DPro]]
2. cyclo(PRYF[Dap]AF[dP]) [c[Pro-Arg-Tyr-Phe-Dap-Ala-Phe-DPro]]
3. cyclo(PRFFNAF[dP]) [c[Pro-Arg-Phe-Phe-Asn-Ala-Phe-DPro]]

Given back:
[5.2, 18, 9]
